Molecular target: AXL (Homo sapiens, UniProt P30530)
Sequence (P30530 26-894): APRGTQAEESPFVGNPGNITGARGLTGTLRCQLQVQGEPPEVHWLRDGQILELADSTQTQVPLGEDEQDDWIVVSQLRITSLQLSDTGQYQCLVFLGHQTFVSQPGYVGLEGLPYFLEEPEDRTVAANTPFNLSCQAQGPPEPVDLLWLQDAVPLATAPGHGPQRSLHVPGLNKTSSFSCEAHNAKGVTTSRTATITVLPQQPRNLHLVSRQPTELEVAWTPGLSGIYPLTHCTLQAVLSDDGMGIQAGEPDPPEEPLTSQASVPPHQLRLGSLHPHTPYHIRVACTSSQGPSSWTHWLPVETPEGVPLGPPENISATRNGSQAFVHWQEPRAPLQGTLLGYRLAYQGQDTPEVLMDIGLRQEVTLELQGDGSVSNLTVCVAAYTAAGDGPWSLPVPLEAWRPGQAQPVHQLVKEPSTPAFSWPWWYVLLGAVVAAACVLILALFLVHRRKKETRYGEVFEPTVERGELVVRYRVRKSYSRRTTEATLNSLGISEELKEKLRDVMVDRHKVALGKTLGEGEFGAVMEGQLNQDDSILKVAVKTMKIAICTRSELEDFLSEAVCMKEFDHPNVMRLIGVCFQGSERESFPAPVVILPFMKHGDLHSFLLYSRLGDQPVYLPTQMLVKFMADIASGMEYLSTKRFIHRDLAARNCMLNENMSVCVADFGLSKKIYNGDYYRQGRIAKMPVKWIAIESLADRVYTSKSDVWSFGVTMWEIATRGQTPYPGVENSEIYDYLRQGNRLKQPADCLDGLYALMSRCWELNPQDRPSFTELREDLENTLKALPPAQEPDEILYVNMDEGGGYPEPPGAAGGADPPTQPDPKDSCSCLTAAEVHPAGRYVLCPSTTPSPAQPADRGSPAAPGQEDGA
Assay: AXL enzymatic assay (ADP-Glo)
Type: biochemical
Conditions: purified kinase, ATP 50 μM, read-out: AXL Enzymatic Inhibition (%)
I'd appreciate it if you could supply IC50 values for the items below.

Recorded results for 6 molecules are shown here.
1) CC(=O)Nc1cccc(-c2c(Br)oc3ncnc(Oc4ccc(NC(=O)c5cccn(-c6ccc(F)cc6)c5=O)cc4)c23)c1 | 20 to 100 nM
2) CN1CCN(Cc2ccc(-c3c(-c4cnn(C)c4)oc4ncnc(Oc5ccc(NC(=O)c6cn(C)n(-c7ccc(F)cc7)c6=O)cc5)c34)cc2)CC1 | < 20 nM
3) O=C(Nc1ccc(Oc2ncnc3oc(-c4ccccc4)cc23)cc1)c1cccn(-c2ccc(F)cc2)c1=O | 100 to 50000 nM
4) Cn1cc(-c2oc3ncnc(Oc4ccc(NC(=O)c5cccn(C)c5=O)cc4)c3c2-c2cccc(N)c2)cn1 | 100 to 50000 nM
5) CC(=O)Nc1cccc(-c2c(-c3cnn(C)c3)oc3ncnc(Oc4ccc(NC(=O)c5cccn(-c6ccc(F)nc6)c5=O)cc4)c23)c1 | 100 to 50000 nM
6) Cn1cc(-c2oc3ncnc(Oc4ccc(NC(=O)c5cccn(-c6ccc(F)c(Cl)c6)c5=O)cc4)c3c2-c2cccc(N)c2)cn1 | < 20 nM

The following molecules each have a reported value; give each one's IC50.
1. CC(=O)Nc1cccc(-c2c[nH]c3ncnc(Oc4ccc(NC(=O)c5cn(C)n(-c6ccc(F)cc6)c5=O)cc4)c23)c1
2. CC(=O)Nc1cccc(-c2c(-c3cnn(C)c3)oc3ncnc(Oc4ccc(NC(=O)c5cccn(-c6cccc(F)c6)c5=O)cc4)c23)c1

1. 100 to 50000 nM
2. < 20 nM

Please state, for each entry, its recorded IC50.
1. CN(C)Cc1cccc(-c2c(-c3cnn(C)c3)oc3ncnc(Oc4ccc(NC(=O)c5cccn(C6CCCCC6)c5=O)cc4)c23)c1
2. Cn1cc(-c2oc3ncnc(Oc4ccc(NC(=O)c5cn(C)n(-c6ccc(F)cc6)c5=O)cc4)c3c2-c2ccccc2N)cn1
3. Cn1cc(-c2cc3c(Oc4ccc(NC(=O)c5cccn(-c6ccc(F)cc6)c5=O)cc4)ncnc3[nH]2)cn1
4. NCc1cccc(-c2c[nH]c3ncnc(Nc4ccc(NC(=O)c5cccn(-c6ccc(F)cc6)c5=O)cc4)c23)c1
5. Cn1cc(-c2oc3ncnc(Oc4ccc(NC(=O)c5ccc(-c6cccc(F)c6)o5)cc4)c3c2-c2cccc(N)c2)cn1
6. CN(C)Cc1ccccc1-c1c(-c2cnn(C)c2)oc2ncnc(Oc3ccc(NC(=O)c4cccn(-c5ccc(F)cc5)c4=O)cc3)c12
7. CC(=O)Nc1cccc(-c2c(-c3cc[nH]n3)oc3ncnc(Oc4ccc(NC(=O)c5cccn(-c6ccc(F)cc6)c5=O)cc4)c23)c1

["100 to 50000 nM", "100 to 50000 nM", "< 20 nM", "100 to 50000 nM", "20 to 100 nM", "100 to 50000 nM", "< 20 nM"]

Report IC50 for each item below.
1. CN(c1cccc(-c2c(-c3cnn(C)c3)oc3ncnc(Oc4ccc(NC(=O)c5cccn(-c6ccc(F)cc6)c5=O)cc4)c23)c1)S(C)(=O)=O
2. O=C(Nc1ccc(Oc2ncnc3[nH]cc(-c4ccccn4)c23)cc1)c1cccn(-c2ccc(F)cc2)c1=O
3. CC(=O)Nc1cccc(-c2c(-c3cnn(C)c3)oc3ncnc(Oc4ccc(NC(=O)c5cc6c(n(-c7ccccc7)c5=O)CCCC6=O)cc4)c23)c1

1: 20 to 100 nM; 2: < 20 nM; 3: < 20 nM

Would you mind giving IC50 for every molecule in the list below?
1. CN(C)Cc1cccc(-c2c(-c3cnn(C)c3)oc3ncnc(Oc4ccc(NC(=O)c5cccn(-c6ccc(F)c(F)c6)c5=O)cc4)c23)c1
2. CN(C)Cc1cccc(-c2n[nH]c3ncnc(Oc4ccc(NC(=O)c5cccn(-c6ccc(F)cc6)c5=O)cc4)c23)c1

1. < 20 nM
2. < 20 nM

Please go through the list and note IC50 for each molecule.
1. COc1nn(-c2ccc(C)cc2)cc1C(=O)Nc1ccc(Oc2ncnc3oc(-c4cnn(C)c4)c(-c4cccc(CN(C)C)c4)c23)cc1
2. Cn1cc(-c2oc3ncnc(Oc4ccc(NC(=O)c5cccn(-c6ccc(F)nc6)c5=O)cc4)c3c2-c2cccc(N)c2)cn1
3. CN(C)Cc1cccc(-c2c(-c3cnn(C)c3)oc3ncnc(Oc4ccc(NC(=O)c5cn(C)n(-c6ccc(C(F)(F)F)cc6)c5=O)cc4)c23)c1
4. CN(C)Cc1cccc(-c2n[nH]c3ncnc(Oc4ccc(NC(=O)c5cn(C)n(-c6ccc(F)cc6)c5=O)cc4)c23)c1
5. Nc1cccc(-c2n[nH]c3ncnc(Oc4ccc(NC(=O)c5cccn(-c6ccc(F)cc6)c5=O)cc4)c23)c1

100 to 50000 nM
< 20 nM
< 20 nM
100 to 50000 nM
20 to 100 nM
